assay-text: Cytotoxicity SRB assay, HeLa
conditions-used: human
reported-property: IC50 at 72 h

IC50 at 72 h for COc1cc(O)c2c(c1Cl)/C=C/C[C@H](O)[C@H](O)[C@@H](O)CCC[C@H](C)OC2=O ?
> 10 µM

IC50 at 72 h for COc1cc(OC(C)=O)c2c(c1Cl)/C=C/C[C@H](OC(C)=O)[C@H](OC(C)=O)[C@@H](OC(C)=O)CCC[C@H](C)OC2=O ?
> 10 µM

IC50 at 72 h for COc1cc(O)c2c(c1)/C=C/C[C@H](O)[C@H](O)[C@@H](O)CCC[C@H](C)OC2=O ?
> 10 µM

IC50 at 72 h for COc1cc(O)c2c(c1)/C=C/C[C@H](O)[C@H](O)[C@@H](O)/C=C/C[C@H](C)OC2=O ?
> 10 µM

IC50 at 72 h for COc1cc(O)c2c(c1)/C=C/C[C@@H]1OC(C)(C)O[C@@H]1C(=O)/C=C/C[C@H](C)OC2=O ?
7.21 µM

IC50 at 72 h for COc1cc(O)c2c(c1)C=CCC1OC(C)(C)OC1C(=O)C=CCC(C)OC2=O (stereo not drawn) ?
4.02 µM

* * *

assay-text: Cytotoxicity SRB assay, BXPC-3
conditions-used: human, BXPC-3 pancreatic carcinoma cells
Record form. Attribute: IC50 at 72 h. Fill in for each entry.

IC50 at 72 h for COc1cc(O)c2c(c1)/C=C/C[C@H](O)[C@@H]1OC(C)(C)O[C@H]1/C=C/C[C@H](C)OC2=O ?
> 10 µM

IC50 at 72 h for COc1cc2c(c(OC(C)=O)c1)C(=O)O[C@@H](C)C/C=C/[C@H](OC(C)=O)[C@@H](OC(C)=O)[C@@H](OC(C)=O)C/C=C/2 ?
> 10 µM

IC50 at 72 h for COc1cc2c(c(OC(C)=O)c1)C(=O)O[C@@H](C)C/C=C/C(=O)[C@@H](OC(C)=O)[C@@H](OC(C)=O)C/C=C/2 ?
> 10 µM

IC50 at 72 h for COc1cc(O)c2c(c1Cl)/C=C/C[C@H](O)[C@@H]1OC(C)(C)O[C@H]1/C=C/C[C@H](C)OC2=O ?
> 10 µM

IC50 at 72 h for COc1cc(O)c2c(c1)/C=C/C[C@@H](O)[C@H](O)C(=O)/C=C/C[C@H](C)OC2=O ?
> 10 µM

IC50 at 72 h for CCC(=O)Oc1cc(OC)cc2c1C(=O)O[C@@H](C)C/C=C/[C@H](OC(=O)CC)[C@@H](OC(=O)CC)[C@@H](OC(=O)CC)C/C=C/2 ?
> 10 µM

IC50 at 72 h for COc1cc2c(c(OC(C)=O)c1)C(=O)O[C@@H](C)C/C=C/[C@@H]1OC(C)(C)O[C@H]1[C@@H](OC(C)=O)C/C=C/2 ?
> 10 µM

IC50 at 72 h for COc1cc(O)c2c(c1)/C=C/C[C@H](O)[C@@H](O)C(=O)/C=C/C[C@H](C)OC2=O ?
> 10 µM

IC50 at 72 h for COc1cc(O)c2c(c1Cl)/C=C/C[C@H](O)[C@H](O)[C@@H](O)/C=C/C[C@H](C)OC2=O ?
> 10 µM

IC50 at 72 h for COc1cc(O)c2c(c1)/C=C/C[C@H](O)[C@H](O)C(=O)/C=C\C[C@H](C)OC2=O ?
5.07 µM

IC50 at 72 h for COc1cc(O)c2c(c1)/C=C/C[C@H](O)[C@H](O)C(=O)/C=C/C[C@H](C)OC2=O ?
8.47 µM

IC50 at 72 h for COc1cc(O)c2c(c1)/C=C/C[C@@H](O)[C@@H](O)C(=O)/C=C/C[C@H](C)OC2=O ?
> 10 µM

IC50 at 72 h for COc1cc(O)c2c(c1)/C=C/C[C@H](OC(C)=O)[C@H](OC(C)=O)[C@@H](OC(C)=O)/C=C/C[C@H](C)OC2=O ?
> 10 µM

IC50 at 72 h for COc1cccc2c1C(=O)c1c(O)c3c(c(O)c1C2=O)C[C@@](O)(C(=O)CO)C[C@@H]3O[C@H]1C[C@H](N)[C@H](O)[C@H](C)O1 [Adriamycin, reference compound] ?
0.033 µM
